Listing of entries alongside the reported cytotoxicity at 70.5 h.
# assay: Human HepG2 cell viability assay in 384 well format
# Assay type: toxicity, cell-based
# Parameters: dose 125 nL, time 70.5 hour; concentration not given beside the values
# test_parameters: HepG2 cells, read-out: Inhibition
readout_name: cytotoxicity at 70.5 h (%)

> print(dat)
                                    molecule            readout.name  observed
 1    O=C(c1ccc[nH]1)N1CCn2cc(Cn3cncn3)nc2C1  cytotoxicity at 70.5 h     -9.02
 2  CC(C)CCn1cc(C(C(=O)O)N2CCC(N3CCSCC3)CC2)cn1 (configuration not stated)  cytotoxicity at 70.5 h      3.77
 3  CC(=O)N1CCCC(c2nc(-c3ccccc3)c[nH]2)C1 (configuration not stated)  cytotoxicity at 70.5 h     -3.53
 4    CCOc1ccc2oc(-c3cn(C)nc3C)c(O)c(=O)c2c1  cytotoxicity at 70.5 h      32.5
 5     CC(C)NC(=O)[C@H]1C[C@H]2NCCO[C@@H]2C1  cytotoxicity at 70.5 h      3.88
 6     CC(C)(C)c1nnnn1CC(=O)N(CCC#N)c1ccccc1  cytotoxicity at 70.5 h     -9.07
 7          O=C(CCNCc1cccc2c1OCCCO2)NC1CCCC1  cytotoxicity at 70.5 h      6.45
 8  Cc1nc(C2CCCN(C(=O)c3cc(C)sc3C)C2)no1 (configuration not stated)  cytotoxicity at 70.5 h     -2.35
 9  CC(CNC(=O)Nc1cn[nH]c1)N1CCc2ccccc2C1 (configuration not stated)  cytotoxicity at 70.5 h     -7.18
10  CC(C)(C)n1ncc2c(=O)n(CC(=O)NCc3ccco3)cnc21  cytotoxicity at 70.5 h     -11.6
11  CC(=O)N1CCCCC1c1cc(C(=O)N2CCOCC2)[nH]n1 (configuration not stated)  cytotoxicity at 70.5 h     -7.33
12  COCCC(=O)N1CCCC2(CCC(=O)N2CCOC)CC1 (configuration not stated)  cytotoxicity at 70.5 h     -7.23
13  Cc1noc(C)c1CN1CCc2cnn(C)c2C1COCC1CC1 (configuration not stated)  cytotoxicity at 70.5 h     -3.84
14  CCN(C(=O)c1cc2c([nH]c1=O)CCCC2=O)C1CCCCC1  cytotoxicity at 70.5 h     -5.73
15  Cn1cc(NC(=O)c2cccc(C(F)(F)F)c2)c(=O)n(C)c1=O  cytotoxicity at 70.5 h     -2.92
16  COCCOCC(=O)N1C[C@@H]2CC[C@H](Oc3ccccc3F)[C@@H]2C1  cytotoxicity at 70.5 h      12.1
17  COc1cccc(CN2CCCC3(CCN(C(=O)[C@H]4CCCO4)C3)C2)c1 (some centres not stated)  cytotoxicity at 70.5 h     -2.99
18            O=C1NC[C@H]2CN(Cc3ccccn3)CCN12  cytotoxicity at 70.5 h     0.693
19           O=C(CCc1ccc(Br)cc1)NCc1nnc[nH]1  cytotoxicity at 70.5 h     -9.74
20     COCc1ncc(CN2CCC(Oc3ccc(OC)cc3)CC2)cn1  cytotoxicity at 70.5 h     -20.2
21        COCCNC(=O)c1nnc2ccc(N3CCOCC3)cc2n1  cytotoxicity at 70.5 h      23.1
22  O=C(N[C@@H]1C[C@H]2CC[C@@H]1C2)C1(Oc2ccc(Cl)cc2)CCNCC1  cytotoxicity at 70.5 h     -2.25
23  CC(NC(=O)N(C)Cc1ccsc1)c1ccc2c(c1)NC(=O)CO2 (configuration not stated)  cytotoxicity at 70.5 h     -9.52
24     CN(C)Cc1cnc(CC2CCN(CCc3ccccc3)CC2)cn1  cytotoxicity at 70.5 h     0.387
25  O=C1NCC2(CCCN(C(=O)c3ccc4c(c3)CCO4)C2)O1 (configuration not stated)  cytotoxicity at 70.5 h     -4.91
26                   CC(C)c1nnc(NCc2ccsc2)o1  cytotoxicity at 70.5 h      3.33
27   CCN(CC)CCNC(=O)c1cc(C(C)C)nc(N2CCCC2)n1  cytotoxicity at 70.5 h      56.7
28  CCOC1COC2(CCN(S(=O)(=O)c3cccc(F)c3)CC2)C1 (configuration not stated)  cytotoxicity at 70.5 h     -15.5
29        N#CCCCS(=O)(=O)NC(=O)c1cccc(Cl)c1F  cytotoxicity at 70.5 h      -2.7
30           CCc1ccc(CCC(=O)NCc2nnc[nH]2)cc1  cytotoxicity at 70.5 h     -19.3
31  Cc1cc(S(=O)(=O)N2CCCc3cc(F)c(F)cc32)sc1C(=O)O  cytotoxicity at 70.5 h     -1.45
32    CC(C)Nc1ncnc2c1CCN(C(=O)NCc1cccnc1)CC2  cytotoxicity at 70.5 h     -1.24
33  Cc1ccc(-c2ccnc(NCC3(N(C)C)CCOCC3)n2)c(C)n1  cytotoxicity at 70.5 h        -4
34  Cc1nn(C)c(C)c1C1CCCN1CC(=O)Nc1cc(C(C)C)no1 (configuration not stated)  cytotoxicity at 70.5 h     -3.36
35  COCCNC(=O)c1ccoc1CN1c2ccccc2CC1C (configuration not stated)  cytotoxicity at 70.5 h     -6.26
36  Cc1ccc(S(=O)(=O)N2CCC(Cn3cc(C(C)(C)N)nn3)CC2)s1  cytotoxicity at 70.5 h     -6.09
37  CCc1nc(CN2CCCC(Cn3nc(C)nc3C)C2)no1 (configuration not stated)  cytotoxicity at 70.5 h     -9.12
38      COCCOc1cccc(CNCc2ccc(-n3cncn3)nc2)c1  cytotoxicity at 70.5 h     -4.01
39  c1ccc(OC[C@]23COC[C@H]2CN(Cc2ccoc2)C3)nc1  cytotoxicity at 70.5 h     -12.9
40  CN(C(=O)c1ccon1)[C@@H]1CCC[C@@H](Oc2ccccc2)[C@@H]1O  cytotoxicity at 70.5 h     -1.37
41  CC(O)CN1CCN(C(=O)c2ccc(N3CCCC3)nn2)CC1 (configuration not stated)  cytotoxicity at 70.5 h      1.72
42  Cc1nn(C)cc1CNC(=O)c1cn(CCC2CCCCN2)nn1 (configuration not stated)  cytotoxicity at 70.5 h     -8.92
43  CC(C)C(=O)NC1CCCN(C(=O)c2ccccc2O)C1 (configuration not stated)  cytotoxicity at 70.5 h     -7.34
44  CC(C)S(=O)(=O)N1CCCC(c2nccn2Cc2cccnc2)C1 (configuration not stated)  cytotoxicity at 70.5 h     -8.01
45    Cc1nc(-c2ccccc2)cc2nn(CC(N)=O)c(=O)n12  cytotoxicity at 70.5 h     -2.53
46  Cc1nccc(-c2ccccc2)c1C(=O)N1CCC2(CCCO2)CC1  cytotoxicity at 70.5 h      2.47
47       Cc1cc(NCCCNc2cccnc2)n2nc(C)c(C)c2n1  cytotoxicity at 70.5 h     -10.7
